Source: patent US5789434A

Molecular target: MMP-3 (Homo sapiens, UniProt P08254)
Construct: Truncated Prostromelysin-257 was expressed in a soluble form in E.coli; made in house; host or cells: E. coli
Sequence (P08254 100-274 limits assumed): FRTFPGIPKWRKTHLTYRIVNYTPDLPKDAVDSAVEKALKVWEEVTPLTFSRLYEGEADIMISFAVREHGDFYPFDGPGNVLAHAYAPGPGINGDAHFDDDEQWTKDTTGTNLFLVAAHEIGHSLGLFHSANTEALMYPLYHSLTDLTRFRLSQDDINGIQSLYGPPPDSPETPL
Assay: Automated MMP Profiling Assay, MMP-3 fluorogenic
Assay type: biochemical
Conditions: at 5 μM
Excerpt: This assay with each invention compound was run with the three enzymes MMP-3, MMP-9 and MMP-2 in parallel as adapted for a 96-well microtitre plate using a Hamilton A® workstation.
Provide the recorded inhibition at 5 µM for the entries that follow.
Answer format: numeric, % implied, no suffix.

Please look at this molecule and report its inhibition at 5 µM: `CCCCCOc1ccc(-c2ccc(C(=O)C[C@@H](CCCc3ccccc3)C(=O)O)cc2)cc1`
8

Provide only the value of recorded inhibition at 5 µM for O=C(O)C1=CCCC1C(=O)c1ccc(-c2ccc(Cl)cc2)cc1 (stereo not shown)
0

Supply inhibition at 5 µM value. Item: O=C(CC(CCCc1ccccc1)C(=O)O)c1ccc(-c2ccc(/C=C\c3ccccc3)cc2)cc1 (stereo not shown)
39

For the molecule CCCC/C=C\c1ccc(-c2ccc(C(=O)CC(CCCc3ccccc3)C(=O)O)cc2)cc1 (stereo not shown) , report inhibition at 5 µM.
45

---

Target: MMP-2 (Homo sapiens, UniProt P08253)
Sequence (P08253 110-660): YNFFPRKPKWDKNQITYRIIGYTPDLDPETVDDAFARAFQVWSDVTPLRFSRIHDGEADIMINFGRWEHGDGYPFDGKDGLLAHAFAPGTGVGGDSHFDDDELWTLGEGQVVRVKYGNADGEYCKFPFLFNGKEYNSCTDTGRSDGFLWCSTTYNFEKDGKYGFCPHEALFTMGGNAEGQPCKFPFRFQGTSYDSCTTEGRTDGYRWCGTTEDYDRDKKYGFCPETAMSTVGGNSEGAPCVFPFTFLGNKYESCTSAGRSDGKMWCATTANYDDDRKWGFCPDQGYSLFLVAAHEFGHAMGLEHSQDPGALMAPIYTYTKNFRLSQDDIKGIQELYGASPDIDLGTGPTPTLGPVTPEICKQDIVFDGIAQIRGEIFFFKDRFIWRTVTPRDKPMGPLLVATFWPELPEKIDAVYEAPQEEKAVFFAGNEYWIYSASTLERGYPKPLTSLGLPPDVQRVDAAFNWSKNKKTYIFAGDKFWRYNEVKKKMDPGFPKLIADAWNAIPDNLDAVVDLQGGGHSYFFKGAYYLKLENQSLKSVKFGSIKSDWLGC
Assay: Automated MMP Profiling Assay, MMP-2 fluorogenic
Type: biochemical
Details: 96-well automated, P218; read-out: MMP-2 Fluorogenic IC50 (profiling)
For each of the molecules below, state its IC50.
Report the figure in nM without appending any unit label.

Quote IC50 reported for O=C(CC(CCCc1ccccc1)C(=O)O)c1ccc(-c2ccc(CCc3ccccc3)cc2)cc1 (centres unmarked) [Example 359] please.
51

Return the recorded IC50 value; entry: O=C(CC(CCN1C(=O)c2cccc(OCc3ccccc3)c2C1=O)C(=O)O)c1ccc(-c2ccc(Cl)cc2)cc1 (centres unmarked) [Example 407]
39

Provide one value: measured IC50 of O=C(O)[C@H]1[C@H](COCc2ccccc2)CC[C@@H]1C(=O)c1ccc(-c2ccc(Cl)cc2)cc1 (relative stereo) [Example 365]
13

Identify the reported IC50 for the following entry. O=C(CC(CCCc1ccccc1)C(=O)O)c1ccc(-c2ccc(OCC3CC3)cc2)cc1 (centres unmarked) [Example 97]
48

State its IC50: COC(=O)c1ccccc1SC[C@@H]1CC[C@H](C(=O)c2ccc(-c3ccc(Cl)cc3)cc2)[C@H]1C(=O)O (relative stereo) [Example 376]
34

---

Record form. Attribute: inhibition at 5 µM. Fill in for each entry.
Target: MMP-3 (Homo sapiens, UniProt P08254)
Construct: Truncated Prostromelysin-257 was expressed in a soluble form in E.coli; made in house; host or cells: E. coli
Experiment: Primary Thiopeptilide MMP-3 Inhibition Assay
Format: biochemical
Conditions: at 5 μM; read-out: MMP-3 Thiopep. % inhibition
Write the number in % without appending the unit.

Quote inhibition at 5 µM reported for CCc1ccc(-c2ccc(C(=O)CC(CC(C)C)C(=O)O)nc2)cc1 (stereo not drawn) please.
35

Output measured inhibition at 5 µM for this item: CCCCCCCOc1ccc(-c2ccc(C(=O)CC(CCCc3ccccc3)C(=O)O)cc2)cc1 (stereo not drawn)
60

Please report the measured inhibition at 5 µM for O=C(O)[C@H]1C2CCC(CC2)[C@@H]1C(=O)c1ccc(-c2ccc(Cl)cc2)cc1 (relative stereo)
15

---

Would you mind telling me the reported IC50 of each entry?
Target: MMP-2 (Homo sapiens, UniProt P08253)
Assay: Automated MMP Profiling Assay, MMP-2 fluorogenic
Type: biochemical
Conditions: 96-well automated, P218; read-out: MMP-2 Fluorogenic IC50 (profiling)
Response body: numeric value in nM, unit text excluded.

State its IC50 for this molecule: O=C(CC(CCCCN1C(=O)c2ccccc2C1=O)C(=O)O)c1ccc(-c2ccc(Cl)cc2)cc1 (stereo not drawn) [Example 431]
16

Assign IC50 to the following record: CCN(CC)C(=O)c1ccc(CCC(CC(=O)c2ccc(-c3ccc(Cl)cc3)cc2)C(=O)O)cc1 (stereo not drawn) [Example 151]
70

Retrieve IC50 measured for CCOc1ccc(-c2ccc(C(=O)CC(CCN3C(=O)CCC3=O)C(=O)O)cc2)cc1 (stereo not drawn) [Example 412] and print it.
10

Given the molecule CCN(CC)C(=O)c1cccc(CC[C@@H](CC(=O)c2ccc(-c3ccc(Cl)cc3)cc2)C(=O)O)c1 [Example 145] , write its reported IC50.
2.1

Identify IC50 associated with the molecule O=C(c1ccc(-c2ccc(Cl)cc2)cc1)[C@H]1CCN(C(=O)CCc2ccccc2)[C@@H]1C(=O)O [Example 169]
80

Give a short answer stating reported IC50 for O=C(O)[C@@H]1[C@@H](C(=O)c2ccc(-c3ccc(Cl)cc3)cc2)[C@H]2C=C[C@@H]1C2 (relative stereo) [Example 177] .
4330

Give a short answer stating reported IC50 for O=C(O)[C@H]1[C@H](CSc2cccs2)CC[C@@H]1C(=O)c1ccc(-c2ccc(Cl)cc2)cc1 (relative stereo) [Example 369] .
37

Give me measured IC50, please, for this molecule: O=C(CC(CCCc1ccccc1)C(=O)O)c1ccc(-c2cccnc2)cc1 (stereo not drawn) [Example 70]
1750

Consider the molecule O=C(CC(CCCc1ccccc1)C(=O)O)c1ccc(-c2ccc(OCc3ccncc3)cc2)cc1 (stereo not drawn) [Example 111] and give its recorded IC50.
3.9
